# assayed_system: human Y4 receptor (Homo sapiens)
# Construct: expressed in transfected cells; host or cells: COS-7 cells
# Sequence (P50391 whole entry): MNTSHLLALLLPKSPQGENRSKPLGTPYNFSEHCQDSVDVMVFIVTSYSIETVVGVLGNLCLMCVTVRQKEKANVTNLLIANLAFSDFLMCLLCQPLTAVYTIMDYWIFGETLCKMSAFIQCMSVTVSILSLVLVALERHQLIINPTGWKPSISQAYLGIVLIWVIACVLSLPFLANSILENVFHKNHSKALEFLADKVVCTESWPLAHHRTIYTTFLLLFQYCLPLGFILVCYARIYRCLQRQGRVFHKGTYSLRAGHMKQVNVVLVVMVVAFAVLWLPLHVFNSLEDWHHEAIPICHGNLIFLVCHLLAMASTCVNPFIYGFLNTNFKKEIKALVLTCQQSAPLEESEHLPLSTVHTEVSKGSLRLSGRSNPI
# experimental_protocol: Human Y4 receptor potency assay (inositol phosphate turnover)
# Type: cell-based
Where no end group is shown, it is not given here.
parameter: EC50 (nM)
Write the value in nM as a bare number.

Returns the measured EC50 for the input substance. Input: PLEPVYPGENATPEQLAQYAADLRRYINTLTRPRY-NH2 [[Glu10;Leu17;Thr-30]-PP(2-36), [Glu10, Leu17, Thr30]PP2-36]
1.07

* * *

# assayed_system: human Y1 receptor (Homo sapiens)
# Construct: expressed in transfected cells; host or cells: COS-7 cells
# Sequence (P25929 whole entry): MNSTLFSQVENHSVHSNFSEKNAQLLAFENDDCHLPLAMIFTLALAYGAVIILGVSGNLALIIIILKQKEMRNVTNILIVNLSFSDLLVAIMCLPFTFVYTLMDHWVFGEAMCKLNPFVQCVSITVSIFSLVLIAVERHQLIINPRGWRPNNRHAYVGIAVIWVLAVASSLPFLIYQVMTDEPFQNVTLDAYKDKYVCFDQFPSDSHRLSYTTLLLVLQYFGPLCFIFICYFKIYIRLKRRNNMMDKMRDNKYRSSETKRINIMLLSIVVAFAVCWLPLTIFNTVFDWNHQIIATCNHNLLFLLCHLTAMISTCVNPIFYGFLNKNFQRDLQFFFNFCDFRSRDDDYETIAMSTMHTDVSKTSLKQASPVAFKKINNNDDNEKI
# experimental_protocol: Human Y1 receptor potency assay (inositol phosphate turnover)
# Type: cell-based
Where no end group is shown, it is not given here.
parameter: EC50

Returns the measured EC50 for the input substance. Input: PLEPVYPGENATPEQLAQYAADLRRYINTLTRPRY-NH2 [[Glu10;Leu17;Thr-30]-PP(2-36), [Glu10, Leu17, Thr30]PP2-36]
> 1000 nM
